tested_on: UniProt:P08173
Sequence (P08173 1-479): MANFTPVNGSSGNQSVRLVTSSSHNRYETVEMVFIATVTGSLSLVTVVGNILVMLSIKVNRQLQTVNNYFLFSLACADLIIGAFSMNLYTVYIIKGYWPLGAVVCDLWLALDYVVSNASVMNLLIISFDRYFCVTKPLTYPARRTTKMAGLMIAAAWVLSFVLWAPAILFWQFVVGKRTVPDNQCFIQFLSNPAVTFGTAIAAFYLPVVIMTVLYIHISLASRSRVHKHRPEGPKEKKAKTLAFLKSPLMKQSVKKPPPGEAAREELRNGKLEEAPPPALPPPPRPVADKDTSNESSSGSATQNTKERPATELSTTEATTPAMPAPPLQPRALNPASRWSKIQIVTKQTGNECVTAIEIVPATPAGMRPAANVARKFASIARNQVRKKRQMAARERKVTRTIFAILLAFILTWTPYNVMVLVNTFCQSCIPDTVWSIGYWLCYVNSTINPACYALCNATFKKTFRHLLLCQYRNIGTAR
method_summary: Muscarinic binding activity, 3H-QNB displacement, M4
assay_setup: membranes from stably transfected CHO cells, 3H-QNB 100-200 pM, 25° C., 90 minutes
// Ki lookup, one value per entry

CC(C)Oc1ccc(C2(C)CC23CCN(C2CCN(C(=O)c4cccc(Cl)c4Cl)CC2)CC3)cc1 (stereo not shown): 261 nM

Which value of Ki has been reported for Cc1c(Cl)cccc1C(=O)N1CCC(N2CCC3(CC2)CC3c2ccc(OC(C)C)cc2)CC1 (stereo not shown) in the records?
> 1000 nM

Which value of Ki has been reported for CC(C)Oc1ccc(C2C(Cl)(Cl)C23CCN(C2CCN(C(=O)c4cccc(Cl)c4Cl)CC2)CC3)cc1 (stereo not shown) in the records?
> 1000 nM

Which value of Ki has been reported for Cc1cccc(C(=O)N2CCC(N3CCC4(CC3)C(c3ccc(OC(C)C)cc3)C4(Cl)Cl)CC2)c1N (stereo not shown) in the records?
> 1000 nM

----------
tested_on: cloned human M1 muscarinic receptor (Homo sapiens)
Sequence (P11229 1-460): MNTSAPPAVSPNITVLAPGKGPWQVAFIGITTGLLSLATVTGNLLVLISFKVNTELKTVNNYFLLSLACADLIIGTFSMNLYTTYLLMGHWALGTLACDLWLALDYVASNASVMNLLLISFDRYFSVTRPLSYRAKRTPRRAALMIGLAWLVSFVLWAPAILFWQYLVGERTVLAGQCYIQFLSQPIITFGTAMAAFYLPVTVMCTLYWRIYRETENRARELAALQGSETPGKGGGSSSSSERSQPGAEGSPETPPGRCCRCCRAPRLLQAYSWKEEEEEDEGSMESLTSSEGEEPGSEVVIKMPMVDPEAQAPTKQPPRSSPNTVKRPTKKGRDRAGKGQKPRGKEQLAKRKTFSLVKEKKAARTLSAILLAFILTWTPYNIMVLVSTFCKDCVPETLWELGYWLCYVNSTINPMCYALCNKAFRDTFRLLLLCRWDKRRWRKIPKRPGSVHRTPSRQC
method_summary: Muscarinic binding activity, 3H-QNB displacement, M1
assay_setup: membranes from stably transfected CHO cells, 3H-QNB 100-200 pM, 25° C., 90 minutes
// Ki lookup, one value per entry

Would you please look over these solved cases?
Cc1cccc(C)c1C(=O)N1CCC(N2CCC3(CC2)C(c2ccc(OC(C)C)cc2)C3(Cl)Cl)CC1 (stereo not shown): > 1200 nM
Cc1c(Cl)cccc1C(=O)N1CCC(N2CCC3(CC2)CC3(C)c2ccc(OC(C)C)cc2)CC1 (stereo not shown): 744 nM
Cc1c(Cl)cccc1C(=O)N1CCC(N2CCC3(CC2)CC3c2ccc(OC(C)C)cc2)CC1 (stereo not shown): > 900 nM

Which value of Ki has been reported for Cc1cccc(C(=O)N2CCC(N3CCC4(CC3)C(c3ccc(OC(C)C)cc3)C4(Cl)Cl)CC2)c1Cl (stereo not shown) in the records?
> 990 nM
